Target chain: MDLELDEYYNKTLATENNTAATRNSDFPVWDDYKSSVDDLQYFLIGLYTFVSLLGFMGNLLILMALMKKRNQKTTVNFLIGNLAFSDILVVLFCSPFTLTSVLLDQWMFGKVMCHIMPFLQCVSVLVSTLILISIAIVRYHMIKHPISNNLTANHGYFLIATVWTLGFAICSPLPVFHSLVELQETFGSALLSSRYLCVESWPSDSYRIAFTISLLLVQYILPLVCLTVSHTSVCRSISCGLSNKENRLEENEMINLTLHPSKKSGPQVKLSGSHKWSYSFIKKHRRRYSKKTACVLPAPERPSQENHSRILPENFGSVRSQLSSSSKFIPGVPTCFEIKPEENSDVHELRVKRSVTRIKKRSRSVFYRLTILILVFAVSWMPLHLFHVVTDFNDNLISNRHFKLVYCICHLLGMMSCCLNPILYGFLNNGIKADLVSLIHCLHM
ASSAY ENDPOINT: pIC50
By convention, pIC50 is the negative base-10 log of a molar concentration.

GET /values?readout=pIC50&item= COc1ccc(-c2cc(NC(=O)C3CCN(c4cccc(Cl)c4)CC3)n[nH]2)cc1 [Example 4]
7.41
